The measurements presented in this section are drawn from ChEMBL document CHEMBL4673207.

Target: Protein deacetylase HDAC6 (Homo sapiens, UniProt Q9UBN7)
Sequence (Q9UBN7 whole entry): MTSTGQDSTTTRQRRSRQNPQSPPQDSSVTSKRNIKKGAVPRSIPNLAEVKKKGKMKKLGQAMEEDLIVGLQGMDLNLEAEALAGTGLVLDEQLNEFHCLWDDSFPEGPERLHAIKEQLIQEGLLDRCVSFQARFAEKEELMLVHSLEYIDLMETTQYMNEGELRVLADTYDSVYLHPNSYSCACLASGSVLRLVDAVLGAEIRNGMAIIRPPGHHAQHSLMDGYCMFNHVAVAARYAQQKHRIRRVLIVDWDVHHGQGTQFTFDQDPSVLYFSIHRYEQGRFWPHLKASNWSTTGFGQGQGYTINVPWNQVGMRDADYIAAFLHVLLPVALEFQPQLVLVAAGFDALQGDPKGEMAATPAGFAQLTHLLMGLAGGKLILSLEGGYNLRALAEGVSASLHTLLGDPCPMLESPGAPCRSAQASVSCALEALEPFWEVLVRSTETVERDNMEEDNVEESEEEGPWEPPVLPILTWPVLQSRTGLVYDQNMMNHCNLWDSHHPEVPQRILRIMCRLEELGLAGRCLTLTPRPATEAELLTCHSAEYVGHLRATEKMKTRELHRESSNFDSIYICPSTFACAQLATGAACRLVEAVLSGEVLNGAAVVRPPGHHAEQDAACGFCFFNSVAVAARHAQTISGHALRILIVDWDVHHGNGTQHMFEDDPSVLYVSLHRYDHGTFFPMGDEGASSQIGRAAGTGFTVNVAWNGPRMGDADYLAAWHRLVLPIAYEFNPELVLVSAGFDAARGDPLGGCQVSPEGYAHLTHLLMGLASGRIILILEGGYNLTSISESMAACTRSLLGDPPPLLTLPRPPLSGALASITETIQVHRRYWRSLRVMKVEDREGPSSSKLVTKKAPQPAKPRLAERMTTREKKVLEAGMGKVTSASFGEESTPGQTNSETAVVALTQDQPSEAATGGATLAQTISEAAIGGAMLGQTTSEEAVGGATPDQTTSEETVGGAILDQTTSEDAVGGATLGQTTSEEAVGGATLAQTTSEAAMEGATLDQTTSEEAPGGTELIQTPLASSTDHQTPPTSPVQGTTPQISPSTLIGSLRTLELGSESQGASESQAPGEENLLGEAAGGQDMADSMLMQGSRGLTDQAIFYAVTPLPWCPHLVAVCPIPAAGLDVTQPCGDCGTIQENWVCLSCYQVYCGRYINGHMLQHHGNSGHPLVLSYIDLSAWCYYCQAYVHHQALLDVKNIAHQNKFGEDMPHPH
Experiment: Inhibition of HDAC6 (unknown origin)
value.type: IC50 (nM)
Reply with just the number (in nM).

Q: State its IC50: O=C(NO)c1ccc(CN2c3ccccc3S(=O)(=O)C[C@@H]3CCCC[C@@H]32)cc1
A: 8

###

Target: Histone deacetylase 2 (Homo sapiens, UniProt Q92769)
Sequence (Q92769 whole entry, the tested form may be a part): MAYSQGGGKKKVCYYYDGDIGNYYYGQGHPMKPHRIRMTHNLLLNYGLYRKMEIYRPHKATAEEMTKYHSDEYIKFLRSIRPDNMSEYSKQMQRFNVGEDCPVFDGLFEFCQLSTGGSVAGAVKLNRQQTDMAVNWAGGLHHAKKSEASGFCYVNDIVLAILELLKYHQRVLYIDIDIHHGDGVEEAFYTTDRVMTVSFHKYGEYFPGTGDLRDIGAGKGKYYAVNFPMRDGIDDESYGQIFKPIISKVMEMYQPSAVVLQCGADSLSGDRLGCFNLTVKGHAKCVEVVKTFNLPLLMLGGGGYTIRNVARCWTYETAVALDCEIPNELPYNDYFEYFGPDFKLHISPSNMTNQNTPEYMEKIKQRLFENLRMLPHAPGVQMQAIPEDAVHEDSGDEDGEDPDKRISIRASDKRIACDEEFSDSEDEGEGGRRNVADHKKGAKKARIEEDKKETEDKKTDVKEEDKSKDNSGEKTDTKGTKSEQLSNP
Test: Inhibition of human HDAC2 using fluorogenic HDAC substrate incubated for 15 mins by fluorimetry
value.type: IC50

Q: Output measured IC50 for this item: O=C(NO)c1ccc(Cn2c3c(c4ccccc42)S(=O)(=O)CC3)cc1
A: > 5 µM

###

Biological target: Histone deacetylase 5 (Homo sapiens)
Sequence (Q9UQL6 whole entry): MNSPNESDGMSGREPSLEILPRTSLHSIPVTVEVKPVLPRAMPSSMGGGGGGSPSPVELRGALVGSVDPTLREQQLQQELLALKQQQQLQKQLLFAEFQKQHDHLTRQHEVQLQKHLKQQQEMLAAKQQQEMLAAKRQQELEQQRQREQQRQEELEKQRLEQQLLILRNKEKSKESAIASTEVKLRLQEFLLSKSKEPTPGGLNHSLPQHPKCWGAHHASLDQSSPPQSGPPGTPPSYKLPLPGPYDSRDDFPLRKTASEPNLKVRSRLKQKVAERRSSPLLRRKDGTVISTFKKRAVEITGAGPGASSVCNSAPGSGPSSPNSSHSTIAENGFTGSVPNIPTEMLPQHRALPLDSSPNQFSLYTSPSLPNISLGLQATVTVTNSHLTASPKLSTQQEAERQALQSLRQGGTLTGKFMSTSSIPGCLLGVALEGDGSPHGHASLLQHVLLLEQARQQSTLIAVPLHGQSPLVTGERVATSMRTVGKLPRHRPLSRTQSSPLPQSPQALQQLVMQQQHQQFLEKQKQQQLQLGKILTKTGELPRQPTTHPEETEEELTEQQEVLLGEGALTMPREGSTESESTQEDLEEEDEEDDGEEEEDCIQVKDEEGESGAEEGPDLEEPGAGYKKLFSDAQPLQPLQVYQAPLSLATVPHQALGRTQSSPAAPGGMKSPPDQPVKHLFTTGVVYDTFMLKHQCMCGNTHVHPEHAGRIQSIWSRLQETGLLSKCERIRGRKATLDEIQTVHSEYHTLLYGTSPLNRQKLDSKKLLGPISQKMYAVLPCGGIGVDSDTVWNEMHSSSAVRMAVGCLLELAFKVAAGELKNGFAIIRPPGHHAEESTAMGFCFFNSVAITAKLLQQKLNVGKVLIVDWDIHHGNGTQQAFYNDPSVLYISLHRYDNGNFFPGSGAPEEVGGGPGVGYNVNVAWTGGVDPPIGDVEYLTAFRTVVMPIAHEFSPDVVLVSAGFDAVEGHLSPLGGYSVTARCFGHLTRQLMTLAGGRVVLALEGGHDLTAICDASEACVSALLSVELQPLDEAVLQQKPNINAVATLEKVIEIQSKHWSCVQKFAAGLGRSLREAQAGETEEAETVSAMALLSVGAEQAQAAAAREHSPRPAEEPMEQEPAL
Assay: Inhibition of HDAC5 (unknown origin)
value.type: IC50

Q: State IC50 (Histone deacetylase 5 (Homo sapiens)) of O=C(NO)c1ccc(CN2c3ccccc3S(=O)(=O)C[C@@H]3CCCC[C@@H]32)cc1 .
A: > 8 µM

###

Molecular target: Histone deacetylase 4 (Homo sapiens, UniProt P56524)
Sequence (P56524 whole entry): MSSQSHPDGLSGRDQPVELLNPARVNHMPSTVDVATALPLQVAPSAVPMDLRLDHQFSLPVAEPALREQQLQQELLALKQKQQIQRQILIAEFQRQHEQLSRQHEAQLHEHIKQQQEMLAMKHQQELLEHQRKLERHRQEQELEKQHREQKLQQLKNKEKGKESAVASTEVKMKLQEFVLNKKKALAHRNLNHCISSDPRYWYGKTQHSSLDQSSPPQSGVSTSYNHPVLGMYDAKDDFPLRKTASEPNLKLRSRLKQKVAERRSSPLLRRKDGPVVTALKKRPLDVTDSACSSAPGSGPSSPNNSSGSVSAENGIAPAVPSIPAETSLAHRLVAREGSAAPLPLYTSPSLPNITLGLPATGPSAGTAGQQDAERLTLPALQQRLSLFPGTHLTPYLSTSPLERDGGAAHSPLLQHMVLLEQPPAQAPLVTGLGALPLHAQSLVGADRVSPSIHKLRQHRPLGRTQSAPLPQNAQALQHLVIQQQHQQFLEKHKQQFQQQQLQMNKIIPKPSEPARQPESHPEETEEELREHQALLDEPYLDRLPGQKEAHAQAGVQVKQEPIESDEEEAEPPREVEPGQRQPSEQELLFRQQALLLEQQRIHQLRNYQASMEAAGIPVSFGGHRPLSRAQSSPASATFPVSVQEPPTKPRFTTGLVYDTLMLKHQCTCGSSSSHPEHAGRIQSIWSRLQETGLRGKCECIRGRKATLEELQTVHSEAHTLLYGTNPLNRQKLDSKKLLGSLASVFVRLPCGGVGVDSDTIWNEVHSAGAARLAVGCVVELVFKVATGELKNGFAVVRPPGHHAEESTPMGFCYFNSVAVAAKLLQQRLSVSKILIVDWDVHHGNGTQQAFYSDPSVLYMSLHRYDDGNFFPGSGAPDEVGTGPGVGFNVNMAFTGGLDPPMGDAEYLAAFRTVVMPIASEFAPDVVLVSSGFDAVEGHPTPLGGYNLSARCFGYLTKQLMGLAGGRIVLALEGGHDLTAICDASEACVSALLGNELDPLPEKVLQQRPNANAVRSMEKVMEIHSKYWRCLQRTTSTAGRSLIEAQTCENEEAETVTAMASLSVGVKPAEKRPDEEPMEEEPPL
Test: Inhibition of human HDAC4 expressed in sf9 cells using Fluor deLys substrate by fluorescence method
value.type: IC50 (nM)
Reply numerically in nM, unit not repeated.

Q: Quickly give me recorded IC50 for CN(C)c1cccc2c(S(=O)(=O)NCCCCCC(=O)NO)cccc12
A: 330

###

Molecular target: Polyamine deacetylase HDAC10 (Homo sapiens, UniProt Q969S8)
Sequence (Q969S8 whole entry): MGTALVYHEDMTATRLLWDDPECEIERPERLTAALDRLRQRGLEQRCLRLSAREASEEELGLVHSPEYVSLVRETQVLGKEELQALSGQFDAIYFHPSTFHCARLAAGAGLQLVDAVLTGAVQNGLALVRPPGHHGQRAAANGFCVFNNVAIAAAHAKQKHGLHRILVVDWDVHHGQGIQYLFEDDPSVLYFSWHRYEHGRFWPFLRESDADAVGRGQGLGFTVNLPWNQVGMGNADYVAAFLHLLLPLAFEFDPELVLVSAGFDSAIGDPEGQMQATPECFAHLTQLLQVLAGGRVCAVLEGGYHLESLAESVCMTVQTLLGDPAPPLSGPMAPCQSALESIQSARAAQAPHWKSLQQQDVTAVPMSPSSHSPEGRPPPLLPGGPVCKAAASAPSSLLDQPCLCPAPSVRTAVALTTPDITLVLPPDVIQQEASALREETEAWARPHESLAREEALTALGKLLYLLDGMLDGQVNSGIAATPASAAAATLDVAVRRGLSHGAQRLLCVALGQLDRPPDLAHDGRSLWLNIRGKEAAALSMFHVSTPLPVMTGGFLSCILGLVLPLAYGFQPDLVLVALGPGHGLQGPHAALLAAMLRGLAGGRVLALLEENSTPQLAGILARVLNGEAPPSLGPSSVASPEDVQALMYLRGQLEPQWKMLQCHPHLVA
Assay: Inhibition of HDAC10 (unknown origin)
value.type: IC50

Q: Param request: IC50 | system Polyamine deacetylase HDAC10 (Homo sapiens, UniProt Q969S8) | item O=C(NO)c1ccc(CN2c3ccccc3S(=O)(=O)C[C@@H]3CCCC[C@@H]32)cc1
A: > 8 µM

###

Biological target: Histone deacetylase 2 (Homo sapiens)
Assay: Inhibition of human HDAC2 using p53 fluorogenic peptide (379 to 382 residues) RHKKAc as substrate by fluorescence-based assay
Assignment: determine reported IC50 for the given molecules.
Give just the number in nM; leave the unit off.

Q: Tell us which IC50 value is on record for O=C(NO)c1ccc(Cn2c(=O)c(F)cn(C3CCCO3)c2=O)cc1 (configuration not stated)
A: 5500

Q: Consider the molecule CN(C)c1ccc(C(=O)N(CC(=O)NC2CCCCC2)Cc2ccc(C(=O)NO)cc2)cc1 . State its measured IC50.
A: 200

###

Molecular target: Histone deacetylase 3 (Homo sapiens, UniProt O15379)
Sequence (O15379 whole entry): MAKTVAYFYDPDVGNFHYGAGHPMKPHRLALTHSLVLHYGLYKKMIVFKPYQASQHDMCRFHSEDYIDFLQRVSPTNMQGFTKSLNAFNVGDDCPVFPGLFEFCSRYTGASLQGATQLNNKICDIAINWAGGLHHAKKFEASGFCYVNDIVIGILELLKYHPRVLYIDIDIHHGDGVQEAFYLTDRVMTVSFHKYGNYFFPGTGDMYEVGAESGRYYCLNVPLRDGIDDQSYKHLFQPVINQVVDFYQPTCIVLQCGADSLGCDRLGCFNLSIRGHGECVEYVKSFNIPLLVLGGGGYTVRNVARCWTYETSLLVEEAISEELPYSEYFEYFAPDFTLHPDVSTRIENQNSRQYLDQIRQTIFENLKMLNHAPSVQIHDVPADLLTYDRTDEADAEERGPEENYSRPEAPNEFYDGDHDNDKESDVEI
Experiment: Inhibition of HDAC3 (unknown origin)
value.type: IC50

Q: Quote IC50 with test system Histone deacetylase 3 (Homo sapiens, UniProt O15379) for O=C(NO)c1ccc(CN2c3ccccc3S(=O)(=O)C[C@@H]3CCCC[C@@H]32)cc1
A: > 8 µM

###

Target protein (sequence): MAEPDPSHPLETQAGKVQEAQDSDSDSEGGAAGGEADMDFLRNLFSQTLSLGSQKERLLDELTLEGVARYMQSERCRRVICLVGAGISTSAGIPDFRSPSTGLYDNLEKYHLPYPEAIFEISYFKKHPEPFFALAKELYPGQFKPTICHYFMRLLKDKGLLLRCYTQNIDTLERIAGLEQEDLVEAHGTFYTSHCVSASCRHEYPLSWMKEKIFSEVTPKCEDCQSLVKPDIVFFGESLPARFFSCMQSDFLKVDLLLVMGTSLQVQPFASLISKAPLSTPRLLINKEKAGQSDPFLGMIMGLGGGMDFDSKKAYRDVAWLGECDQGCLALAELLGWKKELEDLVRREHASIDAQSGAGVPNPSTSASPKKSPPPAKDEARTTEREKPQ
value.type: IC50

Q: Fill in reported IC50 for this entry: O=C(CCCCCCNC(=O)c1cnc(N(c2ccccc2)c2ccccc2)nc1)NO
A: > 1000 nM

###

Biological target: Histone deacetylase 11 (Homo sapiens, UniProt Q96DB2)
Sequence (Q96DB2 whole entry): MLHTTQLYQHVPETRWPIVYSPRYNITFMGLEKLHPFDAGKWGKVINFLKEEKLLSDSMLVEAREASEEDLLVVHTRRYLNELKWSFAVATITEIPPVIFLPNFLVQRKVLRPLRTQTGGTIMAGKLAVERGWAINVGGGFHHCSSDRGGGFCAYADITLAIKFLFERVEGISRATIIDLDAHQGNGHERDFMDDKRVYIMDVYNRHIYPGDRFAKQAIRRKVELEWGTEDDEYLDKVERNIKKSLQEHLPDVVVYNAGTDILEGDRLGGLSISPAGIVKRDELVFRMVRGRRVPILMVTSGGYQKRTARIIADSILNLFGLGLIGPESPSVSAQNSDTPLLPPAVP
Assay: Inhibition of HDAC11 (unknown origin)
value.type: pIC50
# reply with the number alone; pIC50 is -log10 of concentration in mol/L

Q: Give reported pIC50 value for O=C(NO)c1ccc(CN2c3ccccc3S(=O)(=O)C[C@@H]3CCCC[C@@H]32)cc1
A: 5.62

###

Target sequence: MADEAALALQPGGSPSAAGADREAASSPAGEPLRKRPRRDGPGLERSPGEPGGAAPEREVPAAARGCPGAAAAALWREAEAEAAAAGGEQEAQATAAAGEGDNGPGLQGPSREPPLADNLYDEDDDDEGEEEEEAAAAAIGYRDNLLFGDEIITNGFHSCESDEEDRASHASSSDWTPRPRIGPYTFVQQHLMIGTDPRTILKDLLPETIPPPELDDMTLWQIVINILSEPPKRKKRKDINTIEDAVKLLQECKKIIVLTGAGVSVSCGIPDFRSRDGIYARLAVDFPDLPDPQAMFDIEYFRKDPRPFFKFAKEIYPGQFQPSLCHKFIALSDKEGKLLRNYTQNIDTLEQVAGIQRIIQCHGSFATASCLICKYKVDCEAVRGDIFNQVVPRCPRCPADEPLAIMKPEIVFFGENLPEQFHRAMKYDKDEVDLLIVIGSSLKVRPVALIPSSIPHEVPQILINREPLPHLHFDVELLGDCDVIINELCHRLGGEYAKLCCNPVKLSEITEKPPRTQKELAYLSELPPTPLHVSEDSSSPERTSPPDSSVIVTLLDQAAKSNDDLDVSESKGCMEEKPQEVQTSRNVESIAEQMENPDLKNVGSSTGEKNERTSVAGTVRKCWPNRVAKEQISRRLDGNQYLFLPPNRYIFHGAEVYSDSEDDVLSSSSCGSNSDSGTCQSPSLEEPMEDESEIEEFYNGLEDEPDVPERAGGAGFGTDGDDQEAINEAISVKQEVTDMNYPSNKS
pIC50: −log10 of the molar value.
value.type: pIC50

Q: Give pIC50 for the following molecule: O=C(CCCCCCNC(=O)c1cnc(N(c2ccccc2)c2ccccc2)nc1)NO [RICOLINOSTAT]
A: < 6.00
